meta.source: the METLIN SMRT retention time set (Domingo-Almenara et al. 2019)

experiment: gradient 5% acetonitrile 3 min, to 50% in 2 min, to 85% in 15 min, held 3 min, 100 µL/min; settings: column: Zorbax Extend-C18 2.1 x 50 mm; eluents: water / acetonitrile, 0.1% formic acid
Attribute: RP-LC retention time
Just the number please, in s, no unit attached.

Recorded RP-LC retention time, per entry:
1) Cc1ccc(NC(=O)C2CC(=O)N(c3ccc4oc(C)nc4c3)C2)cc1 (stereo not given)
749
2) COc1cccc(-c2csc(Cc3nc(-c4ccc(Br)cc4)no3)n2)c1
1280
3) COc1ccc(-c2nc3cc(C)ccn3c2NC(=O)CC(C)(C)C)cc1
681
4) O=c1ccn(-c2cccc(F)c2)nc1-c1nc(-c2ccccc2Br)no1
905
5) c1cn(-c2cc(N3CCCC3)ncn2)cn1
556
6) COc1ccc(CCC(=O)NCc2cccnc2OC)cc1
749
7) CCNC(=O)NCCc1cn(CC(C)C)c2ncccc12
631
8) CC1CCCN(c2ncc(S(=O)(=O)c3ccc(C(C)C)cc3)c(N)n2)C1 (stereo not given)
807

Return reported RP-LC retention time. Input molecule: Fc1cccc(-c2noc(-c3ccc(N4CCN(c5ccccn5)CC4)nc3)n2)c1
799

Return reported RP-LC retention time. Input molecule: CC1(C(=O)NCc2ccccc2)CN(S(=O)(=O)c2ccccc2)CC(=O)N1c1ccc(F)cc1 (stereo not given)
914

Return reported RP-LC retention time. Input molecule: O=C(Cn1cccc1-c1nnc(C2CCC2)o1)N1CCN(c2ccccc2)CC1
898

Return reported RP-LC retention time. Input molecule: O=C(CCS(=O)(=O)c1ccccc1)Nc1nc(-c2ccccc2)cs1
1120

Return reported RP-LC retention time. Input molecule: CCc1noc(NC(C)=O)c1-c1ccc(C)c(S(=O)(=O)Nc2c(C)cc(C)cc2C)c1
904

Return reported RP-LC retention time. Input molecule: COc1ccc(-c2cc3nn(CC(=O)NCC4CCCO4)c(=O)n3c(C)n2)cc1 (stereo not given)
728

Return reported RP-LC retention time. Input molecule: CC(NC(=O)c1cn2c(n1)CSCC2)c1ccc(F)cc1 (stereo not given)
638

Return reported RP-LC retention time. Input molecule: COc1ccccc1CC(=O)N1CCN(c2ccc(-c3ccccn3)nn2)CC1
598

Return reported RP-LC retention time. Input molecule: O=C(Nc1ccsc1-c1nnc(C2CC2)o1)c1cccs1
1160

Return reported RP-LC retention time. Input molecule: O=C(Cn1c(=O)oc2ccccc21)NCC1CCN(C(=O)c2cc3ccccc3o2)CC1
738

Return reported RP-LC retention time. Input molecule: Cc1csc(-c2ccc(N3CCN(C(=O)c4cccc(F)c4)CC3)nc2)n1
822

Return reported RP-LC retention time. Input molecule: Cc1cc(C)n(-c2c3c(nc4c(-c5ccccc5)c(C)nn24)CCC3)n1
982

----------
assay: gradient 5% acetonitrile 3 min, to 50% in 2 min, to 85% in 15 min, held 3 min, 100 µL/min; details: column: Zorbax Extend-C18 2.1 x 50 mm; eluents: water / acetonitrile, 0.1% formic acid
measurement-label: RP-LC retention time (s)
Just the number please, in s, no unit attached.

Recorded RP-LC retention time, per entry:
1. COCC(=O)Nc1cnc(N2CCCCC2)nc1
683
2. Cc1cccc(CN2CC(N(C3CCOCC3)S(C)(=O)=O)C2)c1
621
3. CCOc1nc2ccccc2nc1N1CCCC(C(=O)Nc2cccc(F)c2)C1 (stereo unspecified)
1200
4. CCc1nc2c(NC(=O)COC)cccn2n1
646
5. Cc1cc(=O)n(CC(=O)Nc2cc(C)on2)c(N2CCc3ccccc3C2)n1
699

Return reported RP-LC retention time. Input compound: Cc1cc(C(=O)NOCCO)c(Nc2ccc(I)cc2F)n(C)c1=O
718

Return reported RP-LC retention time. Input compound: CCCN1CCN(C(=O)C2=Cc3cc(-c4ccccc4)ccc3OC2)CC1
714

Return reported RP-LC retention time. Input compound: CCOC(=O)C1CCC(CNC(=O)N2CCN(Cc3nc4ccc(Cl)cc4o3)CC2)CC1 (stereo unspecified)
697

Return reported RP-LC retention time. Input compound: O=C(c1ccoc1)N1CCCC1c1nc(C2CCOCC2)no1 (stereo unspecified)
670

Return reported RP-LC retention time. Input compound: Cc1cc(Cl)cc2sc(NCC3CCCO3)nc12 (stereo unspecified)
958

Return reported RP-LC retention time. Input compound: O=C(CSc1nc2ccsc2c(=O)n1-c1ccc(F)cc1)Nc1ncn[nH]1
667
